Would you kindly list inhibition in vivo at 50 mg/kg for each of these compounds?
System: PAF-Induced Bronchoconstriction
Test: PAF-Induced Bronchoconstriction Assay
Type: in vivo, guinea pig
Settings: Cavia porcellus; 50 mg/kg, po; 2 hours pretreatment
Numbers only, in %.

- Compound: "COc1ccc(-c2ccc(C(=O)NCCCCc3cccnc3)cc2[N+](=O)[O-])cc1OC"
  Measurement unit: "%"
  Data value: 62
- Compound: "O=C(NCCCCc1cccnc1)c1ccc(-c2ccccc2)c(-c2ccccc2)c1"
  Measurement unit: "%"
  Data value: 33
- Compound: "COc1ccc(-c2ccc(C(=O)NCCCCc3cccnc3)cc2Br)cc1OC"
  Measurement unit: "%"
  Data value: 74
- Compound: "COc1ccc(-c2ccc(C(=O)N[C@H](C)CCCc3cccnc3)cc2[N+](=O)[O-])cc1OC"
  Measurement unit: "%"
  Data value: 89

Now look at this one.
Could you share what inhibition in vivo at 50 mg/kg was measured for COc1ccc(-c2ccc(C(=S)NC(C)CCCc3cccnc3)cc2)cc1OC (racemic) , tested on PAF-Induced Bronchoconstriction?
37

---

Target: PAF binding, dog platelets (Canis lupus familiaris, UniProt A0A8I3NSH0)
Sequence (A0A8I3NSH0 1-343): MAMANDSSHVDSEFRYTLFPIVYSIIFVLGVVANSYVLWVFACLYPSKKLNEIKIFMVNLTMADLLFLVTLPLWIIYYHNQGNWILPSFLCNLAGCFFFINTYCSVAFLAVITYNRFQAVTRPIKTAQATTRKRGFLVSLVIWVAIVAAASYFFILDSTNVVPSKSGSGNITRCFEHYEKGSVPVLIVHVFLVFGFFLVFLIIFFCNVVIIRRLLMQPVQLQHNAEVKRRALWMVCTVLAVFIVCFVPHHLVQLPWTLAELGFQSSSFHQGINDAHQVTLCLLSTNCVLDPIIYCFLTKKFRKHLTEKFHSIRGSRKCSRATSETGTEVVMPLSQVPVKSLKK
pIC50: −log10 of the molar value.
# pIC50 >= 7 gives class 1, anything below gives class 0

Use the examples below as a reference point.
- Compound: "COc1ccc(-c2ccc(C(=O)N[C@H](C)CCCc3cccnc3)cc2[N+](=O)[O-])cc1OC"
  Assay system: "PAF binding, dog platelets (Canis lupus familiaris, UniProt A0A8I3NSH0)"
  Category label: "class 0"
- Compound: "COc1ccc(-c2ccc(C(=O)NCCCCc3cccnc3)cc2OC)cc1OC"
  Assay system: "PAF binding, dog platelets (Canis lupus familiaris, UniProt A0A8I3NSH0)"
  Category label: "class 0"
- Compound: "Cc1ccc(-c2ccc(-c3nnn(CCCCCCc4cccnc4)n3)cc2)cc1C"
  Assay system: "PAF binding, dog platelets (Canis lupus familiaris, UniProt A0A8I3NSH0)"
  Category label: "class 0"
- Compound: "COc1ccc(-c2cc(C)c(C(=O)NCCCCc3cccnc3)c(C)c2)cc1OC"
  Assay system: "PAF binding, dog platelets (Canis lupus familiaris, UniProt A0A8I3NSH0)"
  Category label: "class 1"
- Compound: "CCc1cc(C(=O)N[C@H](C)CCCc2cccnc2)ccc1-c1ccc(OC)c(OC)c1"
  Assay system: "PAF binding, dog platelets (Canis lupus familiaris, UniProt A0A8I3NSH0)"
  Category label: "class 1"

For this compound, is measured pIC50 7 or higher? CCCc1cc(C(=O)N[C@H](C)CCCc2cccnc2)ccc1-c1ccccc1
class 1

Could you do the same for COc1ccc(-c2ccc(C(=O)NCCCCc3cccnc3)cc2[N+](=O)[O-])cc1OC , please?
class 0

Could you do the same for Cc1ccc(-c2ccc(C(=S)NCCCCc3cccnc3)cc2)cc1C , please?
class 0

Could you do the same for CCCCc1ccc(C(=O)NCCCCc2cccnc2)cc1CCCC , please?
class 0

Could you do the same for O=C(NCCCCc1cccnc1)c1ccc(-c2cccc(O)c2)cc1 , please?
class 0

Could you do the same for Cc1ccc(-c2ccc(C(=O)NC(C)CCCc3cccnc3)cc2)cc1C (racemic) , please?
class 0

---

Target: Thromboxane Synthase (TXA2 Syn.) (Homo sapiens, UniProt P24557)
Sequence (P24557 1-533): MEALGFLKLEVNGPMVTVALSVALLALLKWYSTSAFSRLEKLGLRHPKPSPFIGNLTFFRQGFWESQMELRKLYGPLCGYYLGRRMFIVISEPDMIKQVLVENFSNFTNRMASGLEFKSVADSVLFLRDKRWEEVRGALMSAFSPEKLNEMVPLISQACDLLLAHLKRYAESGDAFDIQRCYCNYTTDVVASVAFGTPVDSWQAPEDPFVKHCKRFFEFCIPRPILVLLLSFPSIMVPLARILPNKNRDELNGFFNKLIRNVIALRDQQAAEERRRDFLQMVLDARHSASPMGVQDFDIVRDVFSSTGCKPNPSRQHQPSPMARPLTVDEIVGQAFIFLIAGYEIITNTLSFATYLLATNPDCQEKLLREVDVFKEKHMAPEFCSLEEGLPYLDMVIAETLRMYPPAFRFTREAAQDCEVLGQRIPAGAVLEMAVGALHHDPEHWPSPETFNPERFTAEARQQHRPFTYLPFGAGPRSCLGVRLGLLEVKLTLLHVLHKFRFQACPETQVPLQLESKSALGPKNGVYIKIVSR
Observed property: pIC50
Answers are plain numbers, as −log10 of the molar value.

Could you share what pIC50 was measured for Cc1ccc(-c2ccc(C(=O)NCCCCc3cccnc3)cc2)cc1C , tested on Thromboxane Synthase (TXA2 Syn.) (Homo sapiens, UniProt P24557)?
6.90
